Protocol: NCI Yeast Anticancer Drug Screen. Data for the rad50 strain (AID 155);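 also: 0% = growth of vehicle-only cultures of the same strain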
Condition notes: S. cerevisiae rad50 strain growth inhibition; at 50.0 µM; stronger effect = higher value
Compounds without any hit were thinned out: in the full panel of roughly 79,000, 15% have a hit.
Measurement kind: growth inhibition (%)

Molecule	Measured result
CC(=O)NC1C(S[As](C)C)OC(COC(C)=O)C(OC(C)=O)C1OC(C)=O (centres undefined)	91
CC(=O)OC(C)(C)/C=C/C(=O)[C@](C)(O)[C@H]1[C@H](O)C[C@@]2(C)[C@@H]3CC=C4[C@@H](C[C@H](O)[C@H](O)C4(C)C)[C@]3(C)C(=O)C[C@]12C	92.1
Cc1cccc2cc3ccccc3c[n+]12	89.9
COC(=O)[C@@]12OC[C@]34[C@H]([C@@H](O)[C@@H]1O)[C@@]1(C)CC(=O)C(O)=C(C)[C@@H]1C[C@H]3OC(=O)[C@H](OC(=O)/C=C(\C)C(C)C)[C@@H]24	91.5

* * *

Protocol: NCI Yeast Anticancer Drug Screen. Data for the mlh1 strain (AID 171);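 also: 0% = growth of vehicle-treated control cultures of the same strain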
Condition notes: S. cerevisiae mlh1 strain growth inhibition; at 100.0 µM
This is part of a sample that, as a whole, favours compounds with a hit. Of some 79,000 tested, about 15% had one in any assay. Active and inactive are the calls of the source. Cut-off read from the data, not from the text of the source: active = growth inhibition above about 70%; inactive = the rest.
Outcomes: TRUE for active, FALSE for inactive

Compound	Class assignment
O=C(NNC(=O)OCC(Cl)(Cl)Cl)OCC(Cl)(Cl)Cl	TRUE
CCC(=O)OC1CCn2c1nc1c2C(=O)C(C)=C(N2CC2)C1=O (stereo not drawn)	FALSE
O=[N+]([O-])c1ccc(N2CCC(CCCC3CCN(c4ccc([N+](=O)[O-])cc4[N+](=O)[O-])CC3)CC2)c([N+](=O)[O-])c1	FALSE

* * *

Protocol: NCI Yeast Anticancer Drug Screen. Data for the mec2-1 strain (AID 157)
Condition notes: S. cerevisiae mec2-1 strain, at 5.0 µM (retest, dose inferred, filed as 0.5)
This is part of a sample that, as a whole, favours compounds with a hit. Of some 79,000 tested, about 15% had one in any assay. The source made the active and inactive calls. Cut-off read from the data, not from the text of the source: active = growth inhibition above about 70%; inactive = the rest.
Outcomes: y (active), n (inactive)

Molecule	Class assignment
CCOP(=O)(Cc1cccc2ccccc12)OCC	n
CC(Cl)CN(C)C (stereo not given)	n
O=C1N[C@@H]2C(=C[C@H](O)[C@@H](O)[C@H]2O)c2cc3c(c(O)c21)OCO3	n
[Se]c1ncnc2nc[nH]c12	n
BrCc1ccc2ncccc2c1	n
CSc1ccccc1[As](C)C	y
CCC1(CC)C(=O)[N-]C(=O)[N-]C1=O.[Au+].[Au+].c1ccc([PH+](c2ccccc2)c2ccccc2)cc1.c1ccc([PH+](c2ccccc2)c2ccccc2)cc1	y
CC[N+](C)(CC)CCNC(=O)C(O)(c1ccccc1)c1ccccc1	n
CN(C)CCSC1=Nc2ccc(Cl)cc2C(c2ccccc2Cl)=NC1	n
CCc1cccc(C(C)C)c1NC1=C([n+]2ccc(C)cc2)C(=O)c2ccccc2C1=O	n

* * *

Protocol: NCI Yeast Anticancer Drug Screen. Data for the bub3 strain (AID 167)
Condition notes: S. cerevisiae bub3 mutant strain, at 5.0 µM (retest, dose inferred, filed as 0.5)
Compounds without any hit were thinned out: in the full panel of roughly 79,000, 15% have a hit. Active and inactive are the calls of the source. No stated cut-off is given here; in the data, active means growth inhibition above about 70%; inactive means the rest.
Outcomes: 1 (yes) (active), 0 (no) (inactive)

Chem smiles	Class assignment
COc1cc(C(c2c(O)c3ccccc3oc2=O)c2c(O)c3ccccc3oc2=O)cc(OC)c1O	0 (no)
CCN(CCCl)c1cc(CN(C)C)cc(NC(=O)c2ccc(C(=O)Nc3cccc(N(CCCl)NN)c3)cc2)c1	0 (no)
O=C(O)c1cc([N+](=O)[O-])c(Cl)c([N+](=O)[O-])c1Cl	0 (no)
C=CC[N+]12CN3CN(CN(C3)C1)C2	0 (no)
O=C1NC(=O)C([N+](=O)[O-])C(=O)N1	0 (no)
c1ccc2cc3n[se]nc3cc2c1	0 (no)
CC[C@@]1(O)C(=O)OCc2c1cc1n(c2=O)Cc2cc3cc4c(cc3nc2-1)OCO4	1 (yes)
Cc1ccccc1C(=O)CN	0 (no)
N#CC(=C=N)N=C(F)C(C#N)=C(C#N)C#N	0 (no)
